- Tested on: non-replicating cultures of M. tuberculosis H37Rv transformed with lux ABCDE
- PROTOCOL: microbe, parasite or virus in culture
- Type: cell-based, Mycobacterium tuberculosis
- APPLIED_CONDITIONS: ratio of LORA MIC90 to MABA MIC90
MEASURED_PARAMETER: MIC90 LORA/MABA
Field format: numeric only.

Here is how some compounds turned out for MIC90 LORA/MABA.
COMPOUND: CO[C@H]1/C=C/O[C@@]2(C)Oc3c(C)c(O)c4c(O)c(c(/C=N/N5CCN(C)CC5)c(O)c4c3C2=O)NC(=O)/C(C)=C\C=C\[C@H](C)[C@H](O)[C@@H](C)[C@@H](O)[C@@H](C)[C@H](OC(C)=O)[C@@H]1C [RMP, rifampin, reference compound]
MIC90 LORA/MABA: 7.6
//
COMPOUND: CO[C@H]1/C=C/O[C@@]2(C)Oc3c(C)c(O)c4c(=O)c(c5oc6cccc(OCc7ccc(CN8CCN(C(=O)Cn9ccnc9)CC8)cc7)c6nc-5c4c3C2=O)NC(=O)/C(C)=C\C=C\[C@H](C)[C@H](O)[C@@H](C)[C@@H](O)[C@@H](C)[C@H](OC(C)=O)[C@@H]1C [Compound 16b]
MIC90 LORA/MABA: 2.0

Please report the recorded MIC90 LORA/MABA for CO[C@H]1/C=C/O[C@@]2(C)Oc3c(C)c(O)c4c(=O)c(c5oc6cc(N7CCN(C(=O)c8ccccc8)CC7)cc(OCc7ccc(CN8CCOCC8)cc7)c6nc-5c4c3C2=O)NC(=O)/C(C)=C\C=C\[C@H](C)[C@H](O)[C@@H](C)[C@@H](O)[C@@H](C)[C@H](OC(C)=O)[C@@H]1C [Compound 17m] .
4.2

Now consider CO[C@H]1/C=C/O[C@@]2(C)Oc3c(C)c(O)c4c(=O)c(c5oc6cccc(OCCCCN7CCN(C(=O)CN8CCOCC8)CC7)c6nc-5c4c3C2=O)NC(=O)/C(C)=C\C=C\[C@H](C)[C@H](O)[C@@H](C)[C@@H](O)[C@@H](C)[C@H](OC(C)=O)[C@@H]1C .
0.57
